Source: PubChem BioAssay (NCATS)

- PROTOCOL DESCRIPTION: qHTS assay for cell viability of HEK293 cells (AID 743288); note: % is set by controls: 0 for no effect and ±100 for the full control effect
- RUN CONDITIONS: ATP luminescence (CellTiter-Glo), 18 h, stronger effect = lower value
Inconclusive results are not listed.
I'd appreciate it if you could supply max response values for the items below.
# unit: % | format: bare number

Would you mind telling me what max response value was observed for `CCCCCCCC/C=C\CCCCCCCCN` ?
-0.943

Would you mind telling me what max response value was observed for `CC(C)(C)CC(C)(C)c1ccc(O)c(-n2nc3ccccc3n2)c1` ?
-13.9

Would you mind telling me what max response value was observed for `CCCCCCCCOc1ccc(C(=O)c2ccccc2)c(O)c1` ?
-9.08

Would you mind telling me what max response value was observed for `OC[C@H]1O[C@@H]2O[C@H]3[C@H](O)[C@@H](O)[C@@H](O[C@H]4[C@H](O)[C@@H](O)[C@@H](O[C@H]5[C@H](O)[C@@H](O)[C@@H](O[C@H]6[C@H](O)[C@@H](O)[C@@H](O[C@H]7[C@H](O)[C@@H](O)[C@@H](O[C@H]8[C@H](O)[C@@H](O)[C@@H](O[C@H]1[C@H](O)[C@H]2O)O[C@@H]8CO)O[C@@H]7CO)O[C@@H]6CO)O[C@@H]5CO)O[C@@H]4CO)O[C@@H]3CO` ?
-3.67

Would you mind telling me what max response value was observed for `CCOc1ccccc1C(N)=O` ?
9.95

Would you mind telling me what max response value was observed for `CC1(C)OC[C@@H]2O[C@@]3(C(=O)O)OC(C)(C)O[C@H]3[C@@H]2O1` ?
-6.28

Would you mind telling me what max response value was observed for `CCCCCCCCCCCCCC(=O)OC(C)C` ?
-1.19

Would you mind telling me what max response value was observed for `C=C[C@H]1CN2CC[C@H]1C[C@@H]2[C@@H](O)c1ccnc2ccc(OC)cc12` ?
-3.56

Would you mind telling me what max response value was observed for `CN(C)C(=O)Nc1ccc(Cl)c(Cl)c1` ?
-11.4

Would you mind telling me what max response value was observed for `COc1cc([C@H]2Oc3cc([C@H]4Oc5cc(O)cc(O)c5C(=O)[C@@H]4O)ccc3O[C@@H]2CO)ccc1O` ?
5.85

Would you mind telling me what max response value was observed for `NC(=O)c1ccccc1O` ?
-5

Would you mind telling me what max response value was observed for `CCCCOC(=O)CC(CC(=O)OCCCC)(OC(C)=O)C(=O)OCCCC` ?
-16.9

Would you mind telling me what max response value was observed for `O=C(O)c1ccc(S(=O)(=O)N(Cl)Cl)cc1` ?
0.513

Would you mind telling me what max response value was observed for `C#C[C@]1(O)CC[C@H]2[C@@H]3CCC4=Cc5oncc5C[C@]4(C)[C@H]3CC[C@@]21C` ?
-10.7
